Cited source for all entries: the Deep4Chem optical property database

photoluminescence quantum yield overview
# Experiment notes: photoluminescence quantum yield (fraction); solvent given as SMILES
# Measurement parameters: in OCCO
Write the number on its own, no unit after it.

Some molecules with recorded photoluminescence quantum yield:
>  <Molecule>
O=c1c2ccccc2sc2ccccc12

>  <Observed measurement>
0.41

$$$$
>  <Molecule>
Nc1ncnc2c1c(-c1ccc3ccccc3c1)nn2[C@H]1C[C@H](O)[C@@H](CO)O1

>  <Observed measurement>
0.21

$$$$

// photoluminescence quantum yield lookup, key: COC(=O)C(Cc1ccc2oc(-c3ccc(-n4c5ccccc5c5ccccc54)cc3)nc2c1)NC(=O)OC(C)(C)C (centres undefined)
0.52

Look at this molecule and give its reported photoluminescence quantum yield. CN(C)c1c2ccccc2cc2ccccc12
0.022

====

# Experiment notes: photoluminescence quantum yield (fraction); solvent given as SMILES
# Measurement parameters: in CCOC(C)=O
Overview of reported photoluminescence quantum yield across a group of compounds:
Returns: the value as a bare number; no unit string appended.

Reference set (2 entries):
>  <Chem smiles>
Cc1ccc(/C(C#N)=C/c2cc(/C=C(\C#N)c3ccc(C)cc3)c(-c3ccc(N(c4ccccc4)c4ccccc4)cc3)cc2-c2ccc(N(c3ccccc3)c3ccccc3)cc2)cc1

>  <photoluminescence quantum yield>
0.049

$$$$
>  <Chem smiles>
CCOC(=O)CSc1nc(-c2ccccc2)c(C)c(C#N)c1C#N

>  <photoluminescence quantum yield>
0.037

$$$$

Need photoluminescence quantum yield of CC1=[N+]2C(=C(c3cccs3)c3ccc(C)n3[B-]2(F)F)C=C1c1cc2n(c1)[B-](F)(F)[N+]1=CC=CC1=C2c1c(C)cc(C)cc1C , thanks.
0.12

Quick one: photoluminescence quantum yield for CNc1cccc2c1C(=O)c1ccccc1C2=O ?
0.0048

====

# Experiment notes: photoluminescence quantum yield (fraction); solvent given as SMILES
# Measurement parameters: in C1CCCCC1
Reported metric: photoluminescence quantum yield
Just the number, please.

What value of photoluminescence quantum yield has been recorded for this entry: Cc1ccccc1C1=C2C=c3c(oc4c3ccc3ccccc34)=[N+]2[B-](F)(F)n2c1cc1c3ccc4ccccc4c3oc12
0.81

What value of measured photoluminescence quantum yield is listed for CCCN1/C(=C\c2c(-c3ccc(N(C)C)cc3)c(=O)c2=O)C=Cc2ccccc21 ?
0.0262

For the molecule shown here, CC1=[N+]2C(=C(c3cccs3)c3ccc(C)n3[B-]2(F)F)C=C1c1cc2n(c1)[B-](F)(F)[N+]1=CC=CC1=C2c1c(C)cc(C)cc1C , give the reported photoluminescence quantum yield.
0.62

// lookup photoluminescence quantum yield for C[Si](C)(C)c1cccc2ccccc12
0.3

Given the entry c1ccc(-c2nn(-c3ccccc3)c3nc4ccccc4cc23)cc1 , report its measured photoluminescence quantum yield.
0.86

So what does the record say about photoluminescence quantum yield for CCCCC1=Cc2c3ccc4cccc5ccc(c6cc(-c7ccccc7)n(c26)P1(=O)c1ccccc1)c3c45 (centres undefined) ?
0.64

====

photoluminescence quantum yield listing for selected compounds.
# Experiment notes: photoluminescence quantum yield (fraction); solvent given as SMILES
# Measurement parameters: in ClC(Cl)Cl
Enter the number alone.

>  <Chem smiles>
Cc1nc2c(ccc3c2sc(/C=C/c2ccc(N(C)C)cc2)[n+]3C)s1

>  <Reported metric>
photoluminescence quantum yield

>  <Observed measurement>
0.02

$$$$
>  <Chem smiles>
CC[Si](C#Cc1c2c(=O)c3ccccc3c2c(C#C[Si](CC)(CC)CC)c2c(=O)c3ccccc3c12)(CC)CC

>  <Reported metric>
photoluminescence quantum yield

>  <Observed measurement>
0.08

$$$$
>  <Chem smiles>
CCN(CC)c1ccc2cc(/C=C/C(=O)/C=C(O)/C=C/c3cc4ccc(N(CC)CC)cc4oc3=O)c(=O)oc2c1

>  <Reported metric>
photoluminescence quantum yield

>  <Observed measurement>
0.45

$$$$
>  <Chem smiles>
Cc1c2c(nc3ccccc13)-c1cc3c(cc1CC2)-c1nc2ccccc2c(C)c1CC3

>  <Reported metric>
photoluminescence quantum yield

>  <Observed measurement>
0.435

$$$$

Shifting focus to the compound that follows.
What does the data say about its photoluminescence quantum yield? Entry: N#Cc1nc(N(Cc2ccc(Cl)cc2)Cc2ccc(Cl)cc2)c(C#N)nc1N(Cc1ccc(Cl)cc1)Cc1ccc(Cl)cc1
0.71

====

# Experiment notes: photoluminescence quantum yield (fraction); solvent given as SMILES
# Measurement parameters: in CC#N
Reported metric: photoluminescence quantum yield
Keep it simple and answer with nothing but the number.

Which photoluminescence quantum yield value belongs to CCCCCCc1ccc(-n2c3[n+](c4c5ccccc5c5ccccc5c42)[B-](C)(C)c2cc(N(c4ccccc4)c4ccccc4)ccc2-3)cc1 ?
0.73

Query: photoluminescence quantum yield; subject: COc1cc(/C=C/c2nc3ccccc3s2)c(OC)cc1/C=C/c1nc(C)nc(C)n1
0.86

Given CC(=O)c1c2c(cc3ccc(N(C)C)cc13)CCC2 , state its recorded photoluminescence quantum yield.
0.99

Value lookup for photoluminescence quantum yield; key = CN(C)c1ccc2nc(-c3ccc(C(=O)O)cc3)sc2c1
0.86

Suppose we examine the molecule COc1ccc(-c2csc(/C(C#N)=N\Nc3ccc(C#N)cc3)n2)cc1 ; what photoluminescence quantum yield value has been reported?
0.001

====

Listing of recorded photoluminescence quantum yield by entry.
# Experiment notes: photoluminescence quantum yield (fraction); solvent given as SMILES
# Measurement parameters: in c1cc(-n2c3ccccc3c3ccccc32)cc(-n2c3ccccc3c3ccccc32)c1
Please reply with the value in numeric form only.

Solved entries:
>  <Chem smiles>
O=S(=O)(c1cccc(-n2c3ccccc3c3ccccc32)c1)c1cccc(-n2c3ccccc3c3ccccc32)c1

>  <Reported metric>
photoluminescence quantum yield

>  <Observed measurement>
0.218

$$$$
>  <Chem smiles>
O=c1c2ccccc2n2c3ccccc3c(=O)c3cccc1c32

>  <Reported metric>
photoluminescence quantum yield

>  <Observed measurement>
0.724

$$$$
>  <Chem smiles>
c1ccc(-c2nnc(-c3ccc(N4c5ccccc5N(c5ccccc5)c5ccccc54)cc3)n2-c2ccccc2)cc1

>  <Reported metric>
photoluminescence quantum yield

>  <Observed measurement>
0.42

$$$$
>  <Chem smiles>
c1ccc(N(c2ccccc2)c2ccc(-c3ccc4c(c3)C3(c5cc(-c6ccc(N(c7ccccc7)c7ccccc7)cc6)ccc5-4)c4ccccc4N(c4ccccc4)c4ccccc43)cc2)cc1

>  <Reported metric>
photoluminescence quantum yield

>  <Observed measurement>
0.86

$$$$
>  <Chem smiles>
O=S(=O)(c1cccc(N2c3ccccc3Sc3ccccc32)c1)c1cccc(N2c3ccccc3Sc3ccccc32)c1

>  <Reported metric>
photoluminescence quantum yield

>  <Observed measurement>
0.116

$$$$

Turning now to a further record.
Which photoluminescence quantum yield reading was recorded for the compound O=C(c1ccc(N2c3ccccc3Oc3ccccc32)cc1)c1ccc(N2c3ccccc3Oc3ccccc32)cc1 ?
0.7

====

# Experiment notes: photoluminescence quantum yield (fraction); solvent given as SMILES
# Measurement parameters: in ClCCl
Reported metric: photoluminescence quantum yield
Write the value as a bare number.

Example entries and their recorded answers appear below.
>  <Molecule>
CC(C)(C)c1cc(-c2ccc3c(-c4cc(C(C)(C)C)cc(C(C)(C)C)c4)cc4c5cc(-c6cc(C(C)(C)C)cc(C(C)(C)C)c6)ccc5c(-c5cc(C(C)(C)C)cc(C(C)(C)C)c5)cc4c3c2)cc(C(C)(C)C)c1

>  <Observed measurement>
0.609

$$$$
>  <Molecule>
CCC1=C(C)C2=Cc3c4ccccc4c4n3[B-](c3ccc5cc6ccccc6cc5c3)(Oc3ccccc3-4)[N+]2=C1C (configuration not stated)

>  <Observed measurement>
0.76

$$$$
>  <Molecule>
C(#Cc1nc(C#Cc2cccs2)c(C#Cc2cccs2)c(C#Cc2cccs2)c1C#Cc1cccs1)c1cccs1

>  <Observed measurement>
0.48

$$$$

# input molecule: CC(C)(C)c1cc(-c2cc3c(cc(-c4cc(C(C)(C)C)cc(C(C)(C)C)c4)n3-c3ccc(C(=C(c4ccccc4)c4ccccc4)c4ccccc4)cc3)n2-c2ccc(C(=C(c3ccccc3)c3ccccc3)c3ccccc3)cc2)cc(C(C)(C)C)c1 ; wanted: its photoluminescence quantum yield
0.0013

Need photoluminescence quantum yield, item O=C(O)C1=C(C(=O)O)C2=C[C@H]3c4ccccc4[C@]2(S1)c1ccccc13
0.72

Which measured photoluminescence quantum yield value corresponds to COc1ccc(C2=C(C)C3=C(c4c(-c5ccccn5)nc5ccccn45)c4c(C)cc(C)n4[B-](F)(F)[N+]3=C2C)cc1 ?
0.212

====

# Experiment notes: photoluminescence quantum yield (fraction); solvent given as SMILES
# Measurement parameters: in ClCCl
Rule: photoluminescence quantum yield below 0.3 gives yes, anything at or above gives no.

>  <Chem smiles>
CC(C)(C)OC(=O)/C=C/C1=CC2=C(c3ccccc3)c3cccn3[B-](F)(F)[N+]2=C1

>  <Assigned label>
yes

$$$$

Find out if reported photoluminescence quantum yield for COC(=O)c1cc(=O)n(C)c2cc(-c3cc4c5c(c3)CCCN5CCC4)sc12 is less than 0.3
yes

Input COC(=O)c1nc2cnc(N)nc2n1Cc1ccccc1 ; condition: photoluminescence quantum yield strictly below 0.3. Does it hold?
no

Quick check: does CC(=O)N(Cc1ccccn1)c1c2ccccc2c2c3c(cccc13)C(=O)N(Cc1ccccn1)C2=O have photoluminescence quantum yield under 0.3?
no

Please state whether photoluminescence quantum yield is below 0.3 for CCn1c2c(-c3cccs3)cc(C(C)(C)C)cc2c2cc(C(C)(C)C)cc(-c3cccs3)c21
yes

Item CC(C)[Si](C#Cc1ccc(C#C[Si](C(C)C)(C(C)C)C(C)C)c2nc3c4ccccc4c(=O)c4ccccc4c3nc12)(C(C)C)C(C)C : photoluminescence quantum yield beneath 0.3, strictly?
yes
